These measurements were taken from patent US20250050042A1.

Assay: Aerosol performance by Next Generation Impactor (Example 4)
Type: physicochemical
Details: Sample A (coarse lactose batch A); mean
Structures can show the parent of a compound that is named as a salt.
Value kind: FPF (%)
Field format: number, assumed %, no unit text.

QUERY: // returns reported FPF for input COc1ccc(CC(C)NCC(O)c2ccc(O)c(NC=O)c2)cc1 (stereo not drawn) [FF, formoterol fumarate dihydrate]
RESULT: 48.4

QUERY: Similarly, CCC(=O)OCC(=O)[C@@]1(OC(=O)CC)[C@@H](C)C[C@H]2[C@@H]3CCC4=CC(=O)C=C[C@]4(C)[C@@]3(Cl)[C@@H](O)C[C@@]21C ?
RESULT: 45

QUERY: What about this compound? C[N+]1(C)CCC(OC(=O)C(O)(c2ccccc2)C2CCCC2)C1 (stereo not drawn) [GB, glycopyrronium bromide]
RESULT: 41.3
